- System: S. Typhimurium PhoP-regulated promoter GFP reporter, 4 h
- Experimental Protocol: inhibitors of PhoP regulon expression, primary screen, Salmonella Typhimurium, GFP reporter (AID 1863)
Assay Endpoint: IC50

Request: Give its IC50 value. Item: COc1ccccc1CNCC(O)Cn1c2ccccc2c2ccccc21 (stereo not drawn)
Response: 104 µM

Request: Try this compound next: NC(N)=NN=C1CCCCCCCCCCC1
Response: 100 µM

Request: Try this compound next: O=C(c1ccccc1)c1c2c(cc3sc4ccccc4[n+]13)-c1cccc3cccc-2c13
Response: 79.6 µM

---

- Test system: S. Typhimurium PhoP-regulated promoter GFP reporter, 4 h
- Experimental Protocol: inhibitors of PhoP regulon expression, primary screen, Salmonella Typhimurium, GFP reporter (AID 1863)
Assignment: determine reported pIC50 for the given compounds.
When answering, recall that pIC50 equals minus log10 of the concentration in mol/L, and write that number alone.

Request: Give its pIC50 value. Item: Oc1cccc2ccc(Nc3ccccn3)nc12
Response: 4.72

Request: Try this compound next: O=C1C=C(N2CCOCC2)c2ccccc2C1=O
Response: 4.29

Request: Try this compound next: CCCCCCCCCCOC(=O)Cn1c(COc2cccc(C)c2)[n+](C)c2ccccc21
Response: 4.73

Request: Try this compound next: CCCCCCCCCCCCCCCC[N+](C)(C)C
Response: 4.46

Request: Try this compound next: O=C(N/N=C/c1cc(Cl)ccc1O)c1cccnc1
Response: 4.31

Request: Try this compound next: CN(C)S(=O)(=O)c1cccc(NC(=S)N/N=C/c2cc(Br)ccc2O)c1
Response: 4.16

Request: Try this compound next: CC1CCCC(C)N1/N=C/c1c[nH]c2ccc(Br)cc12 (stereo unspecified)
Response: 4.02

Request: Try this compound next: c1ccc2c(c1)Sc1ccccc1N2CC1CN2CCC1CC2 (stereo unspecified)
Response: 3.87

Request: Try this compound next: CCCCCCCCCCCCCCCC[n+]1cccc2ccccc21
Response: 4.60

Request: Try this compound next: O=c1c2c(-c3ccccc3)csc2nc2c3ccccc3c(NCCN3CCOCC3)nn12
Response: 4.27

Request: Try this compound next: Cc1cc(C)n(-c2nc(NCCN(C)C)c3c4c(sc3n2)CCCC4)n1
Response: 3.99

Request: Try this compound next: CC(=O)N1CCN(c2cc3c(cc2F)c(=O)c(C(=O)O)cn3C2CC2)CC1
Response: 4.79

Request: Try this compound next: CC(C(=O)NC1CCS(=O)(=O)C1)N1C(=O)/C(=C/c2ccc(Cl)cc2)SC1=S (stereo unspecified)
Response: 4.40

Request: Try this compound next: CCn1cc(C(=O)O)c(=O)c2cc(F)c(N3CCN(C(=S)Nc4ccccc4OC)CC3)cc21
Response: 4.96

Request: Try this compound next: Cc1onc(-c2ccccc2)c1C(=O)NC(=S)NNC(=O)c1ccc(O)cc1O
Response: 3.96

Request: Try this compound next: CC1CCC(C(C)C)C(OC(=O)Cn2c(COc3ccccc3)[n+](C)c3ccccc32)C1 (stereo unspecified)
Response: 4.14

Request: Try this compound next: Oc1ccc(CN2CCc3ccccc3C2)c2cccnc12
Response: 4.37

Request: Try this compound next: COC(=O)C1C(O)C(C)C(O)C(C)/C=C\C=C(/C)C(=O)Nc2c(C)c(OC(C)=O)c3c(c2O)C(=O)C(C)=C2OCOC(=C23)/C(C)=C/C(C)(O)C(O)C(C)C1O (stereo unspecified)
Response: 4.83

Request: Try this compound next: COc1ccc(C(=O)Cn2nc(CNc3ccc(Br)cc3)[n+]3c2CCCCC3)cc1
Response: 4.09

Request: Try this compound next: O=C(N/N=C/c1ccc([N+](=O)[O-])o1)c1ccc(O)cc1
Response: 4.48

Request: Try this compound next: CC(C)NC1=C(Cl)C(=O)c2ccccc2C1=O
Response: 4.12

Request: Try this compound next: c1cnc2c(c1)ccc1cccnc12
Response: 4.40

Request: Try this compound next: COc1ccc(CNC[C@@H](CCCCN(C)Cc2ccc(OC)cc2)N2C[C@H](c3ccccc3)N(CCc3ccc(Cl)c(Cl)c3)C(=O)C2=O)cc1
Response: 4.12

Request: Try this compound next: O=C(Nc1ccccc1)Nc1ncc([N+](=O)[O-])s1
Response: 4.39

Request: Try this compound next: CCn1cc(C(=O)O)c(=O)c2cc(F)c(N3CCNCC3)cc21
Response: 6.29

Request: Try this compound next: CN1/C(=C\C=C\C2=[N+](C)c3ccc4ccccc4c3C2(C)C)C(C)(C)c2ccccc21
Response: 4.99

---

- System: S. Typhimurium PhoP-regulated promoter GFP reporter, 4 h
- Experimental Protocol: inhibitors of PhoP regulon expression, primary screen, Salmonella Typhimurium, GFP reporter (AID 1863)
Assignment: determine reported pIC50 for the given molecules.
When answering, recall that pIC50 equals minus log10 of the concentration in mol/L, and write that number alone.

Request: Give its pIC50 value. Item: CCCCCCCCCCOC(=O)C[N+](C)(C)C/C=C(/C)Cl
Response: 4.29

Request: Try this molecule next: Cc1ccc(S(=O)(=O)/N=C2/C=C(Sc3ncn[nH]3)C(=O)c3ccccc32)cc1
Response: 4.27

Request: Try this molecule next: CNc1cc(Cl)c2nonc2c1[N+](=O)[O-]
Response: 4.43

Request: Try this molecule next: O=C1NC(=S)S/C1=C\C=C\c1ccc([N+](=O)[O-])o1
Response: 4.65

Request: Try this molecule next: Oc1c(CN2CCN(c3ccc(F)cc3)CC2)cc(Cl)c2cccnc12
Response: 4.31

Request: Try this molecule next: COc1cc(Cc2cc(N)nc(N)n2)cc(OC)c1OC
Response: 5.30

Request: Try this molecule next: O=[N+]([O-])c1ccc(-c2ccn[nH]2)o1
Response: 4.42

Request: Try this molecule next: CCCCOc1ccc(Cc2cnc(N)nc2N)cc1
Response: 4.04

Request: Try this molecule next: CCOC(=O)C1=Nc2ccccc2C1=[N+]=[N-]
Response: 4.49

Request: Try this molecule next: O=S1(=O)Nc2c(ccc3cccnc23)-c2ccccc21
Response: 5.11

Request: Try this molecule next: N=c1n(Cc2ccccc2)c2ccccc2n1CC(O)COc1ccc(Cl)cc1Cl (configuration not stated)
Response: 4.45

Request: Try this molecule next: CCC(C)NC(=O)c1cn(CC)c2cc(N3CCN(C)CC3)c(F)cc2c1=O (configuration not stated)
Response: 4.43

Request: Try this molecule next: CC(=O)c1c(C)n([O-])c2ccccc2[n+]1=O
Response: 3.92

Request: Try this molecule next: CN1CCN(c2c(F)cc3c(=O)c(C(=O)O)cn4c3c2OCN4C)CC1
Response: 6.59

Request: Try this molecule next: CCCOc1ccc(C(=O)NC(=S)N2CCN(c3cc4c(cc3F)c(=O)c(C(=O)O)cn4CC)CC2)cc1
Response: 4.61

Request: Try this molecule next: CCCCCCCSc1cc(OC)c(CCNC)cc1OC
Response: 4.25

Request: Try this molecule next: COc1ccc(OCC(O)CNc2ccc(Br)cc2)cc1 (configuration not stated)
Response: 4.43

Request: Try this molecule next: Cc1nc2c(=O)n(C)c(=O)nc-2n(C)n1
Response: 5.94

Request: Try this molecule next: CCCCCCCCCC[N+](C)(C)CC/C=C1/c2ccccc2Sc2ccc(Cl)cc21
Response: 4.73

Request: Try this molecule next: Nc1nc2ccccc2n1Cc1ccc(Cl)c(Cl)c1
Response: 4.08

Request: Try this molecule next: CC[n+]1c(/C=C/N(C)c2ccccc2)n(-c2ccccc2)c2ccc(-c3nc4ccccc4s3)cc21
Response: 4.58

Request: Try this molecule next: Cc1ccc(C)c(/C=C/C(=O)c2ccccc(=O)c2O)c1
Response: 4.05

Request: Try this molecule next: O=[N+]([O-])c1cc(F)c2cccnc2c1O
Response: 4.92

Request: Try this molecule next: CCn1cc(C(=O)NCCCN(C)C)c(=O)c2cc(F)c(N3CCN(C)CC3)cc21
Response: 4.31

Request: Try this molecule next: Fc1ccccc1CCNCc1ccccc1
Response: 4.23

Request: Try this molecule next: CC(C)(C)/C(O)=C/c1nc2cc(Cl)ccc2oc1=O
Response: 4.00

Request: Try this molecule next: Clc1ccc(OCCn2ccnc2)c2ccccc12
Response: 4.07

Every entry's value here was drawn from PubChem BioAssay AID1863.
